Entries and their MFI values follow.
Target: T1, human ICOS, full-length, expressed on transfected Expi293 cells (human, UniProt Q9Y6W8 21-199)
T1 construct: whole, on cells
T1 sequence (looked up): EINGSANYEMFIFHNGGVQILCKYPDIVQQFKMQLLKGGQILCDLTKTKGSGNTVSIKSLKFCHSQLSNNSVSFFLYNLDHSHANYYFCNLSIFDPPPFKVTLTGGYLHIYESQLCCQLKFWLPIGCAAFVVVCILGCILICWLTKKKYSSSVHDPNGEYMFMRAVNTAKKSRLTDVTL
Test: flow cytometry, 100 nM, Expi293 cells with human ICOS
assayEndpoint: MFI (MFI)

| binder | readingUnit | obsValue |
| --- | --- | --- |
| variant ICOSL IgV-Fc fusion N57Q/Q100P (Fc fusion) DTQEKEVRAMVGSDVELSCACPEGSRFDLNDVYVYWQTSESKTVVTYHIPQNSSLEQVDSRYRNRALMSPAGMLRGDFSLRLFNVTPQDEQKFHCLVLSPSLGFQEVLSVEVTLHVAANFSVGSGGGGSEPKSSDKTHTCPPCPAPEAEGAPSVFLFPPKPKDTLMISRTPEVTCVVVDVSHEDPEVKFNWYVDGVEVHNAKTKPREEQYNSTYRVVSVLTVLHQDWLNGKEYKCKVSNKALPAPIEKTISKAKGQPREPQVYTLPPSREEMTKNQVSLTCLVKGFYPSDIAVEWESNGQPENNYKTTPPVLDSDGSFFLYSKLTVDKSRWQQGNVFSCSVMHEALHNHYTQKSLSLSPG | MFI | 205000 |
| variant ICOSL IgV-Fc fusion N52L/N57H/Q100R (Fc fusion) DTQEKEVRAMVGSDVELSCACPEGSRFDLNDVYVYWQTSESKTVVTYHIPQLSSLEHVDSRYRNRALMSPAGMLRGDFSLRLFNVTPQDEQKFHCLVLSRSLGFQEVLSVEVTLHVAANFSVGSGGGGSEPKSSDKTHTCPPCPAPEAEGAPSVFLFPPKPKDTLMISRTPEVTCVVVDVSHEDPEVKFNWYVDGVEVHNAKTKPREEQYNSTYRVVSVLTVLHQDWLNGKEYKCKVSNKALPAPIEKTISKAKGQPREPQVYTLPPSREEMTKNQVSLTCLVKGFYPSDIAVEWESNGQPENNYKTTPPVLDSDGSFFLYSKLTVDKSRWQQGNVFSCSVMHEALHNHYTQKSLSLSPG | MFI | 250000 |
| variant ICOSL IgV-Fc fusion N52G/N57V (Fc fusion) DTQEKEVRAMVGSDVELSCACPEGSRFDLNDVYVYWQTSESKTVVTYHIPQGSSLEVVDSRYRNRALMSPAGMLRGDFSLRLFNVTPQDEQKFHCLVLSQSLGFQEVLSVEVTLHVAANFSVGSGGGGSEPKSSDKTHTCPPCPAPEAEGAPSVFLFPPKPKDTLMISRTPEVTCVVVDVSHEDPEVKFNWYVDGVEVHNAKTKPREEQYNSTYRVVSVLTVLHQDWLNGKEYKCKVSNKALPAPIEKTISKAKGQPREPQVYTLPPSREEMTKNQVSLTCLVKGFYPSDIAVEWESNGQPENNYKTTPPVLDSDGSFFLYSKLTVDKSRWQQGNVFSCSVMHEALHNHYTQKSLSLSPG | MFI | 332000 |
| variant ICOSL IgV-Fc fusion N52R/N57F/Q100T (Fc fusion) DTQEKEVRAMVGSDVELSCACPEGSRFDLNDVYVYWQTSESKTVVTYHIPQRSSLEFVDSRYRNRALMSPAGMLRGDFSLRLFNVTPQDEQKFHCLVLSTSLGFQEVLSVEVTLHVAANFSVGSGGGGSEPKSSDKTHTCPPCPAPEAEGAPSVFLFPPKPKDTLMISRTPEVTCVVVDVSHEDPEVKFNWYVDGVEVHNAKTKPREEQYNSTYRVVSVLTVLHQDWLNGKEYKCKVSNKALPAPIEKTISKAKGQPREPQVYTLPPSREEMTKNQVSLTCLVKGFYPSDIAVEWESNGQPENNYKTTPPVLDSDGSFFLYSKLTVDKSRWQQGNVFSCSVMHEALHNHYTQKSLSLSPG | MFI | 270000 |
